ASSAY_DETAILS: Cytotoxicity against human 293T cells after 48 hrs by calcein-AM assay
Assay type: cell-based
CONDITION_DESCRIPTION: HEK-293T
MEASURED_ENDPOINT: pIC50
Please report pIC50 as the negative decimal logarithm of the molar concentration, giving only the number.

Example molecules with recorded pIC50:
CCCCCCCCC1=C(OC)C(=O)C2=C(C1=O)S(=O)(=O)CCN2 5.06
CCCCCCCCCCCCCCC1=C(OC)C(=O)C2=C(C1=O)S(=O)(=O)CCN2 4.32

// below: pIC50 requested for another molecule
Ask: Given CCC1=C(OC)C(=O)C2=C(C1=O)S(=O)(=O)CCN2 , state its recorded pIC50.
Result: 4.49
